- Test System: TRKA (Homo sapiens (Human))
- Assay Explanation: Isolated TRK enzyme assay (HTRF KinEASE-TK), TRKA
- Assay type: biochemical
- Experimental Conditions: isolated TRKA enzyme; read-out: TrkA enzyme potency
- Sequence (P04629 441-796): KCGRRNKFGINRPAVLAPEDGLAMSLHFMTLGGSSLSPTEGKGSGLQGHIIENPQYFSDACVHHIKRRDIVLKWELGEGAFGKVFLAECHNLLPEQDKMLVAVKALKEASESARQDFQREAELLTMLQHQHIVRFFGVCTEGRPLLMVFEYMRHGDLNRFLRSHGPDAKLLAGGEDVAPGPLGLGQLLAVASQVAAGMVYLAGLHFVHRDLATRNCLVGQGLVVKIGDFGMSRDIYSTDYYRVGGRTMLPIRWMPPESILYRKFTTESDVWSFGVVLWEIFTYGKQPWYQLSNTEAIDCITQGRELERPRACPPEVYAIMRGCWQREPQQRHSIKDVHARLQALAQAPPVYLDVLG
Measurement Label: IC50 (nM)

Compound | IC50, nM
CC(C)(CO)n1cc(C(=O)c2cncc(NC(=O)Cn3cc(C(F)(F)F)nn3)c2)c2cnc(N)nc21 | 6.7
Cc1cc(C(F)(F)F)nn1CC(=O)Nc1cncc(C(=O)c2cn([C@@H](C)CO)c3ncncc23)c1 | 5.7
CC(CO)n1cc(C(=O)c2cncc(NC(=O)Cn3ccc(C(F)(F)F)n3)c2)c2cnc(N)nc21 (single isomer, unassigned) [Example 38] | 7.2
C[C@H](CO)n1cc(C(=O)c2cncc(NC(=O)Cc3ccc(F)cn3)c2)c2cncnc21 | 249
C[C@@H](CO)n1cc(C(=O)c2cncc(NC(=O)Cc3ccc(C(F)(F)F)cc3)c2)c2cncnc21 | 3.7
CC(CO)n1cc(C(=O)c2cncc(NC(=O)Cc3ccc(Cl)cn3)c2)c2cnc(N)nc21 (single isomer, unassigned) [Example 35] | 8.9
CC(CO)n1cc(C(=O)c2cncc(NC(=O)Cn3cc(C(F)(F)F)nn3)c2)c2cnc(N)nc21 (single isomer, unassigned) [Example 45] | 25
CC(C)(C)n1cc(C(=O)c2cncc(NC(=O)Cc3ccc(F)cn3)c2)c2cncnc21 | 3.7
C[C@H](CO)n1cc(C(=O)c2cncc(NC(=O)Cn3cc(C(F)(F)F)nn3)c2)c2cncnc21 | 71
CC(C)(C)n1cc(C(=O)c2cncc(NC(=O)Cn3cc(C4CC4)cn3)c2)c2cncnc21 | 11

1. CC(C)(CO)n1cc(C(=O)c2cncc(NC(=O)Cc3ccc(F)cc3F)c2)c2cnc(N)nc21
2. Cc1cc(C(F)(F)F)nn1CC(=O)Nc1cncc(C(=O)c2cn([C@H](C)CO)c3ncncc23)c1
Req: In the pair 1 and 2 , the larger recorded IC50 belongs to which? Lab log: write the label of the selected item as the result.
Resp: 2
(2: 23 nM, 1: 6.6 nM)

a. CC(C)(C)n1cc(C(=O)c2cncc(NC(=O)Cn3cc(C(F)(F)F)cn3)c2)c2cncnc21
b. C[C@@H](CO)n1cc(C(=O)c2cncc(NC(=O)Cn3ccc(C(F)(F)F)n3)c2)c2cncnc21
c. CC(C)(CO)n1cc(C(=O)c2cncc(NC(=O)Cn3cc(C4CC4)cn3)c2)c2cncnc21
d. C[C@@H](CO)n1cc(C(=O)c2cncc(NC(=O)Cn3cc(C(F)(F)F)nn3)c2)c2cncnc21
Req: Order by IC50, ascending. Rank the items, then write their labels in that order.
Resp: a, c, b, d
(a: 2.4 nM, c: 5.7 nM, b: 9.2 nM, d: 20 nM)

* * *

- Test System: TRKA (Homo sapiens (Human))
- Assay Explanation: Isolated TRK enzyme assay (HTRF KinEASE-TK), TRKA
- Assay type: biochemical
- Experimental Conditions: read-out: Trka enzyme (IC50)
Measurement Label: IC50 (µM)

Compound | Unit String | Observed
Nc1ncc2c(C(=O)c3cncc(NC(=O)Cc4ccc(Cl)cn4)c3)cn(C34CC(C3)C4)c2n1 | µM | 0.000681

1. CC(C)n1cc(C(=O)c2cncc(NC(=O)Cn3ccnc3)c2)c2cncnc21
2. CC(C)(CO)n1cc(C(=O)c2cncc(NC(=O)Cc3ccc(OC(F)(F)F)cc3)c2)c2cnc(N)nc21
Req: Smaller IC50 value? Options are 1 and 2 # respond with the chosen item's label
Resp: 2

* * *

- Test System: TRKA (Homo sapiens (Human))
- Assay Explanation: Isolated TRK enzyme assay (HTRF KinEASE-TK), TRKA
- Assay type: biochemical
- Experimental Conditions: read-out: Trka enzyme (IC50)
Measurement Label: IC50 (nM)

# annotated cases, reported IC50 shown
Compound | IC50, nM
CC(CO)(CO)n1cc(C(=O)c2cncc(NC(=O)Cc3ccc(Cl)cc3)c2)c2cncnc21 | 70.5
CC(C)n1ncc(CC(=O)Nc2cncc(C(=O)c3cn([C@H](C)CO)c4ncncc34)c2)c1C(F)(F)F | 110

I. O=C(Cc1ccc(Cl)cc1)Nc1cncc(C(=O)c2cn(C3COC3)c3ncncc23)c1
II. CC(C)n1cc(C(=O)c2cncc(NC(=O)Cc3ccc(C#N)cc3)c2)c2cnc(N)nc21
Req: Please compare: I and II . Report which one has the smaller IC50 value. Write down the label attached to your selection.
Resp: II

* * *

- Test System: TRKA (Homo sapiens (Human), UniProt P04629)
- Assay Explanation: Cell based DiscoveRx PathHunter antagonist assay, TRKA cell line
- Experimental Conditions: read-out: TrkA cell potency
- Sequence (P04629 33-796): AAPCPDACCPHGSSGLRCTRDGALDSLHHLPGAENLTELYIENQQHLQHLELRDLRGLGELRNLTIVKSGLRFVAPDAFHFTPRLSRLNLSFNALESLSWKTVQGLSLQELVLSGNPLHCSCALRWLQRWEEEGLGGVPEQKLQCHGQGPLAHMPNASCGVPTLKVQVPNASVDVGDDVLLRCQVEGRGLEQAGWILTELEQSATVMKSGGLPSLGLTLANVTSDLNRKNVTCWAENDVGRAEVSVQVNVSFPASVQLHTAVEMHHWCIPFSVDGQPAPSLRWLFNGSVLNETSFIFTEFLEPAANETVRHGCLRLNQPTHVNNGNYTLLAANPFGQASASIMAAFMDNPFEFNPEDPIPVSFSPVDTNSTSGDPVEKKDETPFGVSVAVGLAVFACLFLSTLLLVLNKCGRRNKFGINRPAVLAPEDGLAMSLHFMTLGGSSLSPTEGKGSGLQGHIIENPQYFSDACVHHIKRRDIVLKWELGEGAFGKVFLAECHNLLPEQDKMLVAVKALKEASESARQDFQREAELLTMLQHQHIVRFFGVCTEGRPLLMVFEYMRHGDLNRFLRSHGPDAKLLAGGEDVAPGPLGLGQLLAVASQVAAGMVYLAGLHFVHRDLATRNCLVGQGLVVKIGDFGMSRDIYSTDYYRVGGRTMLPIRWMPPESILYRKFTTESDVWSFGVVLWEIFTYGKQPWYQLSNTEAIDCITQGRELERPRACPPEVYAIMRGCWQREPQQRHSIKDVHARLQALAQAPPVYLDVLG
pIC50: −log10 of the molar value.
Measurement Label: pIC50

P. CC(CO)n1cc(C(=O)c2cncc(NC(=O)Cc3ccc(Cl)cc3)c2)c2cnc(N)nc21 (single isomer, unassigned) [Example 34]
Q. CC(C)(CO)n1cc(C(=O)c2cncc(NC(=O)Cn3ccc(C(F)(F)F)n3)c2)c2cncnc21 [Example 30]
R. CC(C)(C)n1cc(C(=O)c2cncc(NC(=O)Cn3cc(C4CC4)nn3)c2)c2cncnc21 [Example 4]
S. C[C@H](CO)n1cc(C(=O)c2cncc(NC(=O)Cn3ccc(C(F)(F)F)n3)c2)c2cncnc21 [Example 22]
Req: Rank the items in ascending order with respect to pIC50. Ranked list of labels, please, in the requested order.
Resp: S, P, Q, R
(S: 6.22, P: 7.64, Q: 7.96, R: 8.24)

* * *

- Test System: TRKA (Homo sapiens (Human))
- Assay Explanation: Isolated TRK enzyme assay (HTRF KinEASE-TK), TRKA
- Type: biochemical
- Experimental Conditions: read-out: Trka enzyme (IC50)
Measurement Label: IC50 (µM)

The cases that follow already have their IC50 on record.
Compound | Unit String | Observed
CC(C)(C)n1cc(C(=O)c2cncc(NC(=O)Cn3cc(C4CC4)cn3)c2)c2cnc(N)nc21 | µM | 0.0019
COc1ccc2[nH]c(C)c(CC(=O)Nc3cncc(C(=O)c4cn(C(C)C)c5ncncc45)c3)c2c1 | µM | 0.133
CC(C)n1cc(C(=O)c2cncc(NC(=O)Cc3ccc4cccnc4c3)c2)c2cncnc21 | µM | 0.0256

P. CC(C)n1cc(C(=O)c2cncc(NC(=O)Cn3cc(C(F)(F)F)nn3)c2)c2cnc(N)nc21
Q. O=C(Cn1ccc(C(F)(F)F)n1)Nc1cncc(C(=O)c2cn(C3(CO)COC3)c3ncncc23)c1
R. CC(C)n1cc(C(=O)c2cncc(NC(=O)c3cc(C4CC4)n[nH]3)c2)c2cncnc21
S. CC(C)(C)n1cc(C(=O)c2cncc(NC(=O)Cc3ccc(Cl)cc3)c2)c2cncnc21
T. Cc1nn(C)cc1CC(=O)Nc1cncc(C(=O)c2cn(C(C)(C)C)c3ncncc23)c1
Req: Write the entries in order, lowest recorded IC50 first. Enter labels, ranked according to the request.
Resp: S, P, R, Q, T

* * *

- Test System: UniProt:P04629
- Assay Explanation: Isolated TRK enzyme assay (HTRF KinEASE-TK), TRKA
- Format: biochemical
- Experimental Conditions: read-out: Trka enzyme (IC50)
Measurement Label: IC50 (nM)

Compound | IC50 / nM
CC(C)n1cc(C(=O)c2cncc(NC(=O)Cc3ccc4[nH]cnc4c3)c2)c2cncnc21 | 392
Cc1nc(C(F)(F)F)c(C(=O)Nc2cncc(C(=O)c3cn(C(C)C)c4ncncc34)c2)s1 | 4770
Cc1nc2ccccc2n1CC(=O)Nc1cncc(C(=O)c2cn(C(C)C)c3ncncc23)c1 | 1330

A. CC(C)n1cc(C(=O)c2cncc(NC(=O)c3cncc(Cl)c3)c2)c2cncnc21
B. CC(C)n1cc(C(=O)c2cncc(NC(=O)c3ccnnc3)c2)c2cncnc21
C. CC(C)n1cc(C(=O)c2cncc(NC(=O)Cc3cc(-c4ccccc4)c[nH]3)c2)c2cncnc21
D. CC(C)n1cc(C(=O)c2cncc(NC(=O)c3cnc4ccsc4c3)c2)c2cncnc21
Req: I would appreciate it if you could sort these 4 compounds by IC50, starting from the smallest number. Answer with the labels in sequence, matching the requested order.
Resp: D, A, C, B

* * *

- Test System: TRKB (Homo sapiens (Human))
- Sequence (Q16620 32-822 limits assumed): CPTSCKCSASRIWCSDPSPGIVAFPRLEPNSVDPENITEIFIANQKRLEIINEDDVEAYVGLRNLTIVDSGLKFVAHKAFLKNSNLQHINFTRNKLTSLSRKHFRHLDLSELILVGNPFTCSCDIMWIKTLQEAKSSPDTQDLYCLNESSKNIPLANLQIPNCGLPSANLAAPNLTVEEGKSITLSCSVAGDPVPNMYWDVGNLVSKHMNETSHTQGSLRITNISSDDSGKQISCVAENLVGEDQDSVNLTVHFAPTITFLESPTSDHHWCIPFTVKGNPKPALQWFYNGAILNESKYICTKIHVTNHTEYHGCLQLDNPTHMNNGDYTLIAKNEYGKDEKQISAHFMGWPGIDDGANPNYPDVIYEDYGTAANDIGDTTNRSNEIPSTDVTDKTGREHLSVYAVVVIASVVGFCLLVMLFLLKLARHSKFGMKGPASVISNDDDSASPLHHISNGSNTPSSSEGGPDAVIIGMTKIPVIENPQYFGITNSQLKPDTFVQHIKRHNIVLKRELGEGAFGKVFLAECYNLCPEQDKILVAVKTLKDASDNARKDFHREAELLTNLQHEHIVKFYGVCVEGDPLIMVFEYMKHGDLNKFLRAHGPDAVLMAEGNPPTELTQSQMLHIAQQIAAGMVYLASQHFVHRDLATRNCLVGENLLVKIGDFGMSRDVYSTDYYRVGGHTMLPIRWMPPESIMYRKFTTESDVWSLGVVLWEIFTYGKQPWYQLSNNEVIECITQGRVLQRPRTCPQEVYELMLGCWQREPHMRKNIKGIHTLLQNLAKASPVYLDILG
- Assay Explanation: biochemical
- Experimental Conditions: isolated TRKB enzyme; read-out: TrkB enzyme potency
Measurement Label: IC50 (nM)

Some compounds with recorded IC50:
Compound | Test System | Measurement Label | Unit String | Observed
CC(C)(C)n1cc(C(=O)c2cncc(NC(=O)Cn3ccc(C(F)(F)F)n3)c2)c2cncnc21 | TRKB (Homo sapiens (Human)) | IC50 | nM | 73
C[C@@H](CO)n1cc(C(=O)c2cncc(NC(=O)Cc3ccc(C(F)(F)F)cc3)c2)c2cncnc21 | TRKB (Homo sapiens (Human)) | IC50 | nM | 94

A. Cc1cc(C(F)(F)F)nn1CC(=O)Nc1cncc(C(=O)c2cn([C@@H](C)CO)c3ncncc23)c1
B. CC(C)(CO)n1cc(C(=O)c2cncc(NC(=O)Cc3ccc(F)cn3)c2)c2cnc(N)nc21
C. CC(CO)n1cc(C(=O)c2cncc(NC(=O)Cn3cc(C4CC4)cn3)c2)c2cncnc21 (stereo not shown)
D. Cc1cc(C(F)(F)F)nn1CC(=O)Nc1cncc(C(=O)c2cn(C(C)(C)CO)c3nc(N)ncc23)c1
E. CC(CO)n1cc(C(=O)c2cncc(NC(=O)Cc3ccc(C(F)(F)F)cc3)c2)c2cnc(N)nc21 (single isomer, unassigned) [Example 43]
Req: Kindly order the items shown according to IC50, from the highest value down. Output the labels ranked as instructed.
Resp: C, B, E, A, D
